# assay.system: T1, rhBMP-2 (His-tagged, refolded, E. coli-expressed) (human, UniProt P12643 283-396)
# T1 sequence: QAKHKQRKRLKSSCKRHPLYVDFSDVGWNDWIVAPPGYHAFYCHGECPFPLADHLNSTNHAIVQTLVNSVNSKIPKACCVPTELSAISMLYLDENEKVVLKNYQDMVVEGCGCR
# assay.explanation: ELONA; immobilized rhBMP-2, 100 ng/well; EMSA: 20 mM HEPES pH 7.4, 150 mM NaCl, 2 mM MgCl2, 2 mM CaCl2, 2 mM KCl, 37 C 1 h, 12% native PAGE at 4 C; ELONA: His-rhBMP-2 on HisSorb plate, biotinylated DNA 1 h at 37 C, PBST washes
# condition.parameters: protein: recombinant; tags: His tag (pET-15b NdeI/BamHI); chain copies: 2; label: biotin (ELONA); none in EMSA
Below, each entry is listed with its recorded Kd.
Unit nM implied. Number only.

# binder, Kd / nM
rows = [
    ("BNA2 (ssDNA) DNA: CGTACGGTCGACGCTAGCATCAGCTCTCTGGGCTGAGTGGGTGGTGTGGCACGCACGTGGAGCTCGGATCC", 22.3),
]

// next item, Kd requested
Problem: Kd for BA2 (ssDNA) DNA: CGTACGGTCGACGCTAGCAAAAAAAAATCTAAAAACAAGAAAAGAAAAACAAACACGTGGAGCTCGGATCC ?
Solution: 20.3
